biological target: Dual specificity protein kinase CLK1 (Homo sapiens, UniProt P49759)
Sequence (P49759 whole entry): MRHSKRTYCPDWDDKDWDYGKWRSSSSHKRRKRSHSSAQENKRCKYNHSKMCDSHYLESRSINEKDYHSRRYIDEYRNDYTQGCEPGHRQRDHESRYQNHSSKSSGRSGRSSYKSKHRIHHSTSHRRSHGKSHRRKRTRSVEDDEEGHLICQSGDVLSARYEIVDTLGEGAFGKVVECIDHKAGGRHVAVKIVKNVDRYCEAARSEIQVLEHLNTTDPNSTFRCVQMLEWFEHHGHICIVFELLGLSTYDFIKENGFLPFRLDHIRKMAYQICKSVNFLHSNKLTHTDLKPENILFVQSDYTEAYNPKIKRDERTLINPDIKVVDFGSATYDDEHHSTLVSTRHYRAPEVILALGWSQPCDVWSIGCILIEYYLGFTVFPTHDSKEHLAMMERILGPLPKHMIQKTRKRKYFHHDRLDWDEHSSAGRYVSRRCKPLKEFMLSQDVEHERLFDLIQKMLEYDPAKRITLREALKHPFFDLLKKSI
pIC50: −log10 of the molar value.
# binarize pIC50: threshold 7 inclusive, high side Satisfied, low side Not satisfied

Below are worked cases with known answers.
COC[C@@H](CC(C)C)NC1=N/C(=C\c2ccc3scnc3c2)C(=O)N1C | Not satisfied
COC[C@@H](CC(C)C)NC1=N/C(=C\c2ccc3c(ccn3C)c2)C(=O)N1C | Not satisfied
COC[C@@H](CC(C)C)NC1=N/C(=C\c2ccc3c(c2)CCO3)C(=O)N1 | Satisfied
COC[C@@H](CC(C)C)NC1=N/C(=C\c2ccc3ncn(C)c3c2)C(=O)N1C | Satisfied
COC[C@@H](CC(C)C)NC1=N/C(=C\c2cnc3ncsc3c2)C(=O)N1 | Not satisfied

## Input Answer whether pIC50 of COC[C@@H](CC(C)C)NC1=N/C(=C\c2ccc3nn(C)cc3c2)C(=O)N1C is greater than or equal to 7.
## Output Not satisfied

## Input Reported pIC50 at or above 7? COC[C@@H](CC(C)C)NC1=N/C(=C\c2ccc3ncn(C)c3c2)C(=O)N1
## Output Satisfied

## Input Say whether COC[C@@H](CC(C)C)NC1=N/C(=C\c2ccc3ncsc3n2)C(=O)N1 shows pIC50 of 7 or more.
## Output Satisfied

## Input Identify whether the reported pIC50 of the following molecule is 7 or greater: COC[C@@H](CC(C)C)NC1=N/C(=C\c2ccc3ncoc3c2)C(=O)N1
## Output Satisfied

## Input Hi team, for COC[C@@H](CC(C)C)NC1=N/C(=C\c2ccc3nc(C)sc3c2)C(=O)N1C , is the recorded pIC50 at or above 7?
## Output Not satisfied

## Input Is reported pIC50 greater than or equal to 7 here: COC[C@@H](CC(C)C)NC1=N/C(=C\c2ccc3ncsc3c2)C(=O)N1C1CCC1
## Output Not satisfied

## Input Entry COC[C@@H](CC(C)C)NC1=N/C(=C\c2ccc3[nH]ncc3c2)C(=O)N1 : is its pIC50 no less than 7?
## Output Not satisfied

## Input Determine whether this molecule has pIC50 no lower than 7: COC[C@@H](CC(C)C)NC1=N/C(=C\c2ccc3scnc3c2)C(=O)N1
## Output Not satisfied

## Input Does COC[C@@H](CC(C)C)NC1=N/C(=C\c2ccc3ncsc3c2)C(=O)N1C1CCCCC1 have a reported pIC50 of at least 7?
## Output Not satisfied

## Input I'd appreciate it if you could say whether COC[C@@H](CC(C)C)NC1=N/C(=C\c2ccc3nn(C)cc3c2)C(=O)N1 has pIC50 at least equal to 7.
## Output Not satisfied

## Input Reported pIC50 reaches at least 7 for COC[C@@H](CC(C)C)NC1=N/C(=C/c2ccc3ncoc3c2)C(=O)N1C ?
## Output Satisfied

## Input Given CCN1C(=O)/C(=C/c2ccc3ncsc3c2)N=C1N[C@@H](COC)CC(C)C , state whether its pIC50 is at least 7.
## Output Not satisfied

Recorded values, source ChEMBL document CHEMBL5375979.
